Values from PubChem BioAssay (EPA / NIEHS)

# Assayed System: Estrogen receptor (Homo sapiens)
# Protocol Details: ATG_ERa_TRANS: Attagene TRANS-FACTORIAL HepG2 Assay for human Estrogen Receptor alpha (ERa) (AID 2282970)
# Condition Notes: HepG2 Attagene TRANS ERa GAL4 reporter, mRNA
Results filed as inconclusive are left out. Activity calls are given as the source filed them. Rule for the calls: active = hit-call score of the fitted dose curve at least 0.9, where 1 is the maximum; inconclusive = response in the unintended direction; inactive = score below 0.9.
Readout: AC50

Challenge: Form: Entry = `CCc1cccc(CC)c1N` | System = Estrogen receptor (Homo sapiens) | AC50 = ____
Response given: inactive

Challenge: Another: `OCCC(F)(F)C(F)(F)C(F)(F)C(F)(F)F`
Response given: inactive

Challenge: Another: `NC(=O)N1c2ccccc2C=Cc2ccccc21`
Response given: inactive

Challenge: Another: `Cc1nccn1-c1ccc(Sc2cccc(C3(C(N)=O)CCOCC3)c2)cc1`
Response given: inactive

Challenge: Another: `FC(F)(F)COC(OCC(F)(F)F)OCC(F)(F)F`
Response given: inactive

In the following, a different molecule is considered.
Challenge: Form: Entry = `COc1cc(C(C)C)c2c(c1)S(=O)(=O)N(COc1cc(=O)n3cccc(OCCN4CCCCC4)c3n1)C2=O` | System = Estrogen receptor (Homo sapiens) | AC50 = ____
Response given: 2750 nM (active)
